# Measurement target: HLA-A*02:03
# Method summary: IEDB peptide-MHC binding, purified MHC/competitive/fluorescence; filed as Kd, often an IC50 or EC50 that approximates it; bounds were set here for any values at or beyond the usual limits of such assays
# Study conditions: source organism: Vibrio cholerae 2740-80
pKd: −log10 of the molar value.
Reported property: pKd

**Query** Data request, read-out pKd, for "HSYLWDHQM"
**Result** ≤ 4.70

---

# Measurement target: HLA-A*02:12
# Method summary: IEDB peptide-MHC binding, purified MHC/direct/fluorescence; filed as Kd, often an IC50 or EC50 that approximates it; bounds were set here for any values at or beyond the usual limits of such assays
# Study conditions: source organism: Cryptosporidium parvum Iowa II
pKd: −log10 of the molar value.
Reported property: pKd

**Query** Data request, read-out pKd, for "YLAKLFLDH"
**Result** ≤ 4.70

---

# Measurement target: HLA-A*02:01
# Method summary: IEDB peptide-MHC binding, purified MHC/competitive/fluorescence; filed as Kd, often an IC50 or EC50 that approximates it; bounds were set here for any values at or beyond the usual limits of such assays
# Study conditions: source organism: Bacillus cereus ATCC 4342
pKd: −log10 of the molar value.
Reported property: pKd

**Query** Data request, read-out pKd, for "GLFWGGIWY"
**Result** ≤ 4.70

---

# Measurement target: HLA-C*06:02
# Method summary: IEDB peptide-MHC binding, purified MHC/direct/fluorescence; filed as Kd, often an IC50 or EC50 that approximates it; bounds were set here for any values at or beyond the usual limits of such assays
# Study conditions: source organism: Yersinia pestis Nepal516
Reported property: Kd

**Query** Request: Kd, test system HLA-C*06:02, entry "YVIKKSSPL"
**Result** ≥ 20 µM

---

# Measurement target: HLA-B*18:01
# Method summary: IEDB peptide-MHC binding, purified MHC/competitive/fluorescence; filed as Kd, often an IC50 or EC50 that approximates it; bounds were set here for any values at or beyond the usual limits of such assays
# Study conditions: source organism: Mycobacterium tuberculosis variant bovis BCG str. Pasteur 1173P2
Reported property: pKd
Please report pKd as the negative decimal logarithm of the molar concentration, giving only the number.

**Query** Data request, read-out pKd, for "KVMVICYAY"
**Result** 5.48

---

# Measurement target: HLA-A*02:19
# Method summary: IEDB peptide-MHC binding, purified MHC/competitive/fluorescence; filed as Kd, often an IC50 or EC50 that approximates it; bounds were set here for any values at or beyond the usual limits of such assays
# Study conditions: source organism: Yersinia pestis Nepal516
pKd: −log10 of the molar value.
Reported property: pKd

**Query** Data request, read-out pKd, for "LELIGNAES"
**Result** ≤ 4.70

---

# Measurement target: HLA-B*15:17
# Method summary: IEDB peptide-MHC binding, purified MHC/direct/fluorescence; filed as Kd, often an IC50 or EC50 that approximates it; bounds were set here for any values at or beyond the usual limits of such assays
# Study conditions: source organism: Giardia lamblia ATCC 50803
Reported property: Kd

**Query** Data request, read-out Kd, for "RENQVAVVR"
**Result** ≥ 20 µM

---

# Measurement target: HLA-A*01:01
# Method summary: IEDB peptide-MHC binding, purified MHC/competitive/fluorescence; filed as Kd, often an IC50 or EC50 that approximates it; bounds were set here for any values at or beyond the usual limits of such assays
# Study conditions: source organism: Escherichia coli APEC O1
Reported property: Kd (nM)
Entry rule: numbers only, all in nM.

**Query** Data request, read-out Kd, for "YTTDVNQLY"
**Result** 5.1

Hey, just so you know, these numbers are from the Immune Epitope Database (IEDB).
